Measured EC50 of individual entries
# assay-target: T1, human tissue factor (TF), membrane-bound on cells (human, UniProt P13726 33-295)
# T1 construct: whole, on cells; also called cellular TF
# assay-comment: FACS, Fab fragment on BxPC3 cells
Return type: number; implicit unit µg/mL.

Some binders with recorded EC50:
HuMab-TF-109 Fab fragment (Fab, V domains shown, Fab fragment of the HuMab; VH and VL as for the parent antibody) VH: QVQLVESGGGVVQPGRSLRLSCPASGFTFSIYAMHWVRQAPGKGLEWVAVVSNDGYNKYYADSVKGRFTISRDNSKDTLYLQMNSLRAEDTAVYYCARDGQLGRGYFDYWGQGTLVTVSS VL: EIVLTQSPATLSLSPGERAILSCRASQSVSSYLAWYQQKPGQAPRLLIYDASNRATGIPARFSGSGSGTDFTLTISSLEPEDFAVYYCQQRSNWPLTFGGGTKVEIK | 0.143
HuMab-TF-011 Fab fragment (Fab, V domains shown, Fab fragment of the HuMab; VH and VL as for the parent antibody; also called -011 Fab fragments) VH: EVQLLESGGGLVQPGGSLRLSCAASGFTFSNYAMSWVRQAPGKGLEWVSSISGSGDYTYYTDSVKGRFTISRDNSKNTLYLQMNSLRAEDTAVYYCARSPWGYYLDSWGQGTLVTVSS VL: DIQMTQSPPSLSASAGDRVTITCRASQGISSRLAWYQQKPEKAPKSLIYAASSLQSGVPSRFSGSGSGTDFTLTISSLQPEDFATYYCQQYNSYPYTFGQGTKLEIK | 0.132
HuMab-TF-044 Fab fragment (Fab, V domains shown, Fab fragment of the HuMab; VH and VL as for the parent antibody) VH: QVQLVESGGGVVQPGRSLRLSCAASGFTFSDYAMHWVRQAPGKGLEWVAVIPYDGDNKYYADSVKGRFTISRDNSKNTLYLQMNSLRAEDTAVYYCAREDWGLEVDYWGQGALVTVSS VL: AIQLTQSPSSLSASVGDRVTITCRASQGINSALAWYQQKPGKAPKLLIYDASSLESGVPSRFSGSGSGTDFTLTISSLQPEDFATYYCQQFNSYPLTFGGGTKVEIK | 8.04

Consider HuMab-TF-013 Fab fragment (Fab, V domains shown, Fab fragment of the HuMab; VH and VL as for the parent antibody) VH: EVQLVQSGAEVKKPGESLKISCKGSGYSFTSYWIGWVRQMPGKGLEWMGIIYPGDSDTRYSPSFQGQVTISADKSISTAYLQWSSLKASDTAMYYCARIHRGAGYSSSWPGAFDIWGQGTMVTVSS VL: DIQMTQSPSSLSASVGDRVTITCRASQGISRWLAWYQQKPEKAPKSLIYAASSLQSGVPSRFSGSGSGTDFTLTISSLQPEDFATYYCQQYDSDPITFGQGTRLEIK . Its measured EC50 is 0.301
